pKi: −log10 of the molar value. Counter-ions that a name gives are not always drawn.
Reported pKi, D(1A) dopamine receptor (Rattus norvegicus, UniProt P18901).
measured-quantity: pKi

Could you tell me which pKi is on file for CC1c2cccc3c2[C@@H](CNC3)c2ccc(O)c(O)c21 (mixture of isomers) [(+/-)-7-methyldinapsoline hydrobromide] ?
6.86

Could you tell me which pKi is on file for Oc1ccc2c(c1O)Sc1cccc3c1C2CNC3 (stereo not drawn) ?
6.27

Could you tell me which pKi is on file for CCC1c2cccc3c2[C@@H](CNC3)c2ccc(O)c(O)c21 (mixture of isomers) [(+/-)-7-ethyldinapsoline hydrobromide] ?
6.37

Could you tell me which pKi is on file for CC1NC[C@H]2c3ccc(O)c(O)c3Cc3cccc1c32 (mixture of isomers) [(+/-)-3-methyldinapsoline hydrobromide] ?
5.70

Could you tell me which pKi is on file for CC1(C)c2cccc3c2[C@@H](CNC3)c2ccc(O)c(O)c21 (racemic) ?
6.06

[P] CCCN1Cc2cccc3c2[C@@H](C1)c1ccc(O)c(O)c1C3 (racemic) [(+/-)-2-propyldinapsoline hydrobromide]
[Q] Oc1ccc2c(c1O)Cc1cccc3c1[C@H]2CNC3C(F)(F)C(F)(F)C(F)(F)C(F)(F)F (mixture of isomers)
# argmax over pKi for candidates P and Q Use the label to indicate which entry you chose.
Q
(Q: 6.47, P: 5.70)

[1] Oc1cc(Cl)c2c(c1O)Cc1cccc3c1[C@H]2CNC3 (racemic)
[2] CCCCC1NC[C@H]2c3ccc(O)c(O)c3Cc3cccc1c32 (mixture of isomers) [(+/-)-3-n-butyldinapsoline hydrobromide]
[3] Oc1ccc2c(c1O)Cc1ccc(O)c3c1[C@H]2CNC3 [4-hydroxydinapsoline hydrobromide]
[4] CCc1ccc2c3c1Cc1c(ccc(O)c1O)[C@@H]3CNC2 [6-ethyldinapsoline hydrobromide]
[5] COC(=O)CC1c2cccc3c2[C@@H](CNC3)c2ccc(O)c(O)c21 (mixture of isomers) [(+/-)-7-methoxycarbonylmethyldinapsoline]
Hey, can you sort those compounds up there by pKi, smallest first? Record the ranking as a list of labels in the requested order.
5, 1, 2, 3, 4
(5: 5.62, 1: 5.82, 2: 6.52, 3: 7.14, 4: 7.85)

* * *

Structures can show the parent of a compound that is named as a salt.
Reported Ki, D(2) dopamine receptor (Rattus norvegicus).
measured-quantity: Ki (nM)

Could you tell me which Ki is on file for Oc1ccc2c(c1O)Sc1cccc3c1C2CNC3 (stereo not given) ?
34.5

[1] Oc1ccc2c(c1O)Cc1ccc(O)c3c1[C@H]2CNC3 [4-hydroxydinapsoline hydrobromide]
[2] Oc1ccc2c(c1O)Cc1ccc(F)c3c1[C@H]2CNC3
[3] CC1c2cccc3c2[C@@H](CNC3)c2ccc(O)c(O)c21 (mixture of isomers) [(+/-)-7-methyldinapsoline hydrobromide]
[4] CN1Cc2cccc3c2[C@@H](C1)c1ccc(O)c(O)c1C3 (racemic)
Hey, can you sort those molecules up there by Ki, smallest first? Record the ranking as a list of labels in the requested order.
1, 2, 4, 3
(1: 15 nM, 2: 28 nM, 4: 70 nM, 3: 160 nM)

* * *

Structures can show the parent of a compound that is named as a salt.
Reported Ki, D(2) dopamine receptor (Rattus norvegicus, UniProt P61169).
measured-quantity: Ki (nM)

Could you tell me which Ki is on file for Oc1cc(Cl)c2c(c1O)Cc1cccc3c1[C@H]2CNC3 (racemic) ?
16

[I] COC(=O)CC1c2cccc3c2[C@@H](CNC3)c2ccc(O)c(O)c21 (mixture of isomers) [(+/-)-7-methoxycarbonylmethyldinapsoline]
[II] Oc1ccc2c(c1O)Cc1c(F)ccc3c1[C@H]2CNC3
[III] CCC1c2cccc3c2[C@@H](CNC3)c2ccc(O)c(O)c21 (mixture of isomers) [(+/-)-7-ethyldinapsoline hydrobromide]
Please give the order of these compounds when sorted by Ki, largest value leading. Record the ranking as a list of labels in the requested order.
I, III, II
(I: 990 nM, III: 440 nM, II: 7 nM)
